experiment: CCTE_Mundy_HCI_hNP1_CellTiter: CCTE's Cell Titer-Glo 2 Assay in human neuroprogenitor cells for Viability, Mundy Lab (AID 2284241)
Results filed as inconclusive are left out. Active and inactive are the calls of the source. How the source made its calls: active means hit-call score of the fitted dose curve at least 0.9, where 1 is the maximum; inconclusive means response in the unintended direction; inactive means score below 0.9.
// allowed return values: yes for active, no for inactive

Answer briefly: the call reported for O=P1(N(CCCl)CCCl)NCCCO1 (configuration not stated) in this assay.
no

I would be grateful if you could indicate the recorded call for CCOP(=S)(OCC)SCSCC .
no

Hi team, can someone confirm the assay call for CCC1(c2ccccc2)C(=O)N=C(O)NC1=O (configuration not stated) ?
no

Test call for this molecule, please: C=CC(=O)OCC(F)(F)C(F)F
no

Record lookup: outcome of this test for O=C(O)C=CC(F)(C(F)(F)F)C(F)(F)F ?
no

Returns: the outcome recorded for O=C(O)C(F)(F)OC(F)(F)C(F)(F)OC(F)(F)F in this assay.
no

Returns: the outcome recorded for CO/N=C(/C(=O)OC)c1ccccc1COc1ccccc1C in this assay.
yes

* * *

read-out: Interferon-inducible T-cell alpha chemoattractant (ITAC), CXCL11 (gene 6373); test: BSK_BE3C_ITAC: BioMAP Diversity Plus: BE3C Assay for Interferon-inducible T-cell alpha chemoattractant (ITAC) Biomarker Activity (AID 2284279); settings: primary human bronchial epithelial cells
Active and inactive are the calls of the source. The calls were made as follows: active = hit-call score of the fitted dose curve at least 0.9, where 1 is the maximum; inactive = score below 0.9.
reported property: outcome

OCC(F)(F)OC(F)(F)C(F)(F)OC(F)(F)C(F)(F)OC(F)(F)F = inactive
COP(=O)(CCC(=O)NCO)OC = inactive
FC(F)(F)C(F)(C(F)(F)F)C(F)(F)C(F)(F)CC1CO1 (stereo not drawn) = inactive

* * *

read-out: TIMP metallopeptidase inhibitor 1 (TIMP1), TIMP1 (gene 7076); assay: BSK_MyoF_TIMP1: BioMAP Diversity Plus: MyoF Assay for TIMP metallopeptidase inhibitor 1 (TIMP1) Biomarker Activity (AID 2284269); details: primary human lung fibroblasts
The source made the active and inactive calls. The calls were made as follows: active = hit-call score of the fitted dose curve at least 0.9, where 1 is the maximum; inactive = score below 0.9.
reported property: AC50

Worked set:
O=S1(=O)OCC2C(CO1)C1(Cl)C(Cl)=C(Cl)C2(Cl)C1(Cl)Cl (centres undefined) = inactive
C=CC(=O)OCC(CC)(COC(=O)C=C)COC(=O)C=C = 9.61 µM (active)
Cc1ccc2c(c1N)C(=O)c1ccccc1C2=O = inactive
NC(=O)C(F)(F)C(F)(F)F = inactive
CCCCC(CC)COC(=O)c1c(Br)c(Br)c(Br)c(Br)c1C(=O)OCC(CC)CCCC (centres undefined) = inactive

Tell me its AC50 given CCOP(=S)(OCC)SCSc1ccc(Cl)cc1 as the entry.
inactive

Report measured AC50; entry is O=C(O)C=CC(F)(C(F)(F)F)C(F)(F)F
inactive

Supply measured AC50 of N#Cc1cc([N+](=O)[O-])ccc1N in your reply.
inactive

Report AC50, nothing else, for this compound: O=S(=O)(F)C(F)(F)C(F)(F)C(F)(F)C(F)(F)C(F)(F)C(F)(F)C(F)(F)C(F)(F)F
inactive

Give the reported AC50 for this compound. O=c1ssc(Cl)c1Cl
7.43 µM (active)

Give a short answer stating reported AC50 for COC(=O)C(F)(F)C(F)(F)OC(F)(C(F)(F)F)C(F)(F)OC(F)=C(F)F (centres undefined) .
inactive

Given O=C(O)C(F)(F)C(F)(F)C(=O)O , respond with its AC50.
inactive

Answer with the recorded AC50 of COP(N)(=S)OC only.
inactive
